# Tested on: HCT-116 colon
# assay procedure: NCI tumour cell line growth inhibition, 48 h
*1 amine or outer side, *2 acyl side, *3 side chain or, on linkers, in order; H or OH if unused. Where a SMILES comes first, the peptide text is derived from it. Bridges are numbered along the chain shown (N, C = ends). [ ]: non-standard residue; d: D form. The star is where a group is joined. Phe(3,5-F2) = N[C@@H](Cc1cc(F)cc(F)c1)C(=O)O; Pro(4R-Me) = C[C@H]1CN[C@H](C(=O)O)C1; aThr = C[C@H](O)[C@H](N)C(=O)O; Pip = O=C(O)[C@@H]1CCCCN1; X10 = Fc1cc(C2CC2)ccc1N*; Abu = CC[C@H](N)C(=O)O; CO = O=C([*:1])[*:2]
result type: GI50

As a guide, the following entries are already answered.
COc1cc(-c2nn(-c3ccc(NC(=O)NCCCNC(=O)c4ccccc4)cc3)cc2-c2ccncc2)ccc1Cl = 361 nM
CCCCCc1c(C)[nH]c(/C=C2\N=C(c3ccc[nH]3)C=C2Oc2ccccc2)c1C = 22.8 nM
CC[C@@H]1NC(=O)[C@@H]2CCCCN2C(=O)[C@@H]2CCCN2C(=O)[C@@H](NC(=O)[C@H](Cc2cc(F)cc(F)c2)NC(=O)Nc2ccc(C3CC3)cc2F)[C@H](C)OC(=O)[C@@H]2C[C@@H](C)CN2C1=O ({X10-CO}-[Phe(3,5-F2)][aThr]P[Pip][Abu][Pro(4R-Me)]; ester 2-C) = 42.7 nM
c1ccc(CSc2nnc3c4c5c(sc4nc(-c4cccnc4)n23)CCCCCC5)cc1 = 2770 nM
Oc1ccc(-c2cn3ccsc3n2)cc1O = 18100 nM
N.N.NCCCCCCN.O=C([O-])CCl.O=C([O-])CCl.O=C([O-])CCl.O=C([O-])CCl.[Pt+4].[Pt+4] = > 50000 nM

What value of GI50 has been recorded for this entry: Cn1c(-c2c(N)n(Cc3ccc(C(F)(F)F)cc3)c3nc(C#N)c(C#N)nc23)nc2ccccc21
13100 nM
